- MEASUREMENT PROTOCOL: gradient 5% acetonitrile 3 min, to 50% in 2 min, to 85% in 15 min, held 3 min, 100 µL/min
- CONDITION SET: column: Zorbax Extend-C18 2.1 x 50 mm; eluents: water / acetonitrile, 0.1% formic acid
READOUT LABEL: RP-LC retention time (s)

{"columns": ["COMPOUND", "RP-LC retention time / s"],
 "data": [
  ["COc1ccc2c(c1)CCN(C(=O)CNC(=O)c1ccc(=O)[nH]c1)C2", 583],
  ["O=C(NCc1ccc(-c2noc(CCc3ccccc3)n2)s1)C1CC1", 915],
  ["COc1ccccc1-c1nnc(-c2cc(S(=O)(=O)N3CCOCC3)ccc2Cl)o1", 902],
  ["Cc1ccc(/C=C2\\CCOC2=O)cc1", 916],
  ["Cc1ccc(CN2CCN(CC(=O)Nc3ccc4c(c3)OCCO4)C(=O)C2=O)cc1", 733],
  ["CCCNC(=O)N1C[C@@H]2C(=O)N(Cc3ccc4c(c3)OCO4)C(=O)[C@@H]2C1", 708],
  ["Cc1ccc2[nH]c(=O)c(CCC(=O)NCc3ccncc3)cc2c1", 586],
  ["CCOc1cc(C(=O)NCC(=O)Nc2nc3ccccc3[nH]2)cc(OCC)c1OCC", 715],
  ["O=C(NCc1cccs1)C1CCCN(c2cnc3nccnc3c2)C1 (configuration not stated)", 661],
  ["CC(C)c1cc(C(=O)Nc2ccc(F)c(F)c2)no1", 1040],
  ["COc1ccc(NC(=O)NC2CCN(c3ccccc3)C2=O)c(OC)c1 (configuration not stated)", 761],
  ["CN(CC1CCOC1)C(=O)Nc1ccccc1Br (configuration not stated)", 736],
  ["CCOC(=O)c1sc(NC(=O)c2ccccc2F)nc1-c1ccccc1", 1100],
  ["CCc1ccc(S(=O)(=O)NCCc2csc3nc(-c4cccc(F)c4)nn23)s1", 994],
  ["O=C(Nc1cccc(C(F)(F)F)c1)C1CCN(C(=O)C2Sc3ccccc3NC2=O)CC1 (configuration not stated)", 862],
  ["Nc1nc(-c2ccccc2Cl)nn1C(=O)C1CC1", 827],
  ["CC(C)CC(=O)NCCc1csc(-c2ccc(Cl)cc2)n1", 881],
  ["Cc1ccc(C)c(Cn2nc3ccc(S(=O)(=O)N4CCSCC4)cn3c2=O)c1", 996],
  ["COCCNC(=O)C1COc2ccc(NC(=O)c3ccc(Br)cc3)cc2C1 (configuration not stated)", 774],
  ["COc1cc(NC(=O)NCCc2nc3cccnc3n2C2CCCCC2)cc(OC)c1", 751],
  ["COC(=O)C1=CN(c2cccc(F)c2)c2cc(Br)ccc2S1(=O)=O", 928],
  ["Cc1ccc(NS(=O)(=O)c2cc3n(c2)CCN(C(C)C)C3=O)cc1", 777],
  ["COc1ccc2[nH]c(=O)c(CCC(=O)Nc3ccc(OC)c(OC)c3)cc2c1", 666],
  ["CN(C)CCNC(=O)c1c(-c2ccccc2)c(-c2ccccc2)nn(C)c1=O", 628],
  ["CCCn1nnc2cc(-c3noc(C4CC(=O)N(c5ccc(C)c(C)c5)C4)n3)ccc21 (configuration not stated)", 1020],
  ["Cn1nc(-c2ccccc2)c2ccccc2c1=O", 799],
  ["CCN1C(=O)CCC2(C(=O)Nc3ccc(C)cc3)CCCC=C12 (configuration not stated)", 781]
]}
